Target: T1, TIGIT (UniProt Q495A1 22-141, limits assumed)
T1 construct: also called T cell immunoreceptor with Ig and ITIM domains; hTIGIT
T1 sequence (looked up): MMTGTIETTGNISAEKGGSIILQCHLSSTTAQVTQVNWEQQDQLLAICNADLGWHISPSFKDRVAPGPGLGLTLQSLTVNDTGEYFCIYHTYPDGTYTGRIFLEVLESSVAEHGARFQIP
Assay: SPR (Carterra)

>  <Binder>
TIGIT-471-048 (antibody, V domains shown, Variable domains only) VH: EVQLLESGGGLVQPGGSLRLSCAASGFTFSNYGVSWVRQAPGKGLEWVGYINPSRGYTYYADSVKGRFTISRDNSKNTLYLQMNSLRAEDTAVYYCARSYGGGFDYWGQGTLVTVSS VL: DIQMTQSPSSLSASVGDRVTITCGASQTIERRLNWYQQKPGKAPKLLIYDASSLHTGVPSRISGSGSGTDFTLTISSLQPEHFATYYCQQSYIIPPTFGQGTKVEIK

>  <kon / M⁻¹ s⁻¹>
373000

$$$$
>  <Binder>
TIGIT-471-027 (antibody, V domains shown, Variable domains only) VH: EVQLLESGGGLVQPGGSLRLSCAASGFTFSNYGVSWVRQAPGKGLEWVSWISPHGALTYYADSVKGRFTISRDNSKNTLYLQMNSLKAEDTAVYYCAKGRRRFDYWGQGTLVTVSS VL: DIQMTQSPSSLSASVGDRVTITCRASQTISSYLNWYQQKPGKAPKLLIYENNNRPSGVPSRFSGSGSGTDFTLTISSLQPEDFATYYCQQSYIIPPTFGQGTNVEIK

>  <kon / M⁻¹ s⁻¹>
154000

$$$$
>  <Binder>
TIGIT-471-011 (antibody, V domains shown, Variable domains only) VH: EVQLLESGGGLVQPGGSLRLSCAASGFTFSNYGVSWVRQAPGKGLEWVSSIDWHGWVTYYADSVKGRFTISRDNSKNTLYLQMNSLRAEDTAVYYCVKNALRFDYWGQGTLVTVSS VL: DIQMTQSPSSLSASVGDRVTITCSASQDINKYLNWYQQKPGKAPKLLIYHTSRLQSGVPSRFSGSGSGTDFTLTISSLQPEDFATYYCQQVVWRPFTFGQGTKVEIK

>  <kon / M⁻¹ s⁻¹>
36900

$$$$
>  <Binder>
TIGIT-471-038 (antibody, V domains shown, Variable domains only) VH: EVQLLESGGGLVQPGGSLRLSCAASGFTFSNYGVSWVRQAPGKGLEWVGYINPSRGYTYYADSVKGRFTISRDNSKNTLYLQMNSLRAEDTAVYYCARSYGGGFDYWGQGTLVTVSS VL: DIQMTQSPSSLSASVGDRVTITCRASQTIERRLNWYQQKPGKAPKLLIYDASSLHTGVSSRFSGSGSGTYFTLTISSLQAEDFATYYCQQSYIIPPTFGQGTKVEIK

>  <kon / M⁻¹ s⁻¹>
221000

$$$$

Value source: patent US20260184782A1
